The entries below are paired with their reported EC50.
test system: STING (Homo sapiens, UniProt Q86WV6, G230A/H232R/R293Q/R71H)
Sequence (Q86WV6 whole entry R71H/G230A/H232R/R293Q): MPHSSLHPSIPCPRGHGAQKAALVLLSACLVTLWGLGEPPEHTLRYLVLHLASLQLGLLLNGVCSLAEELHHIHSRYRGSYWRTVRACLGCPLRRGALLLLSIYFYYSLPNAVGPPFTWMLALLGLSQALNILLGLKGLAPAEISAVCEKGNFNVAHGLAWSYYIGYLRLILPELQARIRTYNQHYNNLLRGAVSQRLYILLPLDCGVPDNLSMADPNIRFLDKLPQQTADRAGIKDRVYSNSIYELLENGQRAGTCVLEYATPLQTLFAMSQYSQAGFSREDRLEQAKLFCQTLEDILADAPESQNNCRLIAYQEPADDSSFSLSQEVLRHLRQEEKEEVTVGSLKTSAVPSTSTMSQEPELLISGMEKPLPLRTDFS
protocol description: STING reporter assay (luciferase) in THP1-Dual KO-IFNAR2 cells stimulated with 2′3′cGAMP
stated conditions: 2′3′cGAMP 15 μM final, 24 h, luciferase reporter activity, read-out: Pharmaron, THP1_IFNAR2 STING 24 h Luci Normalized: GeoMean EC50

Please review the entries below; each comes with its answer.
O=C(Nc1c[nH]c2ccc(CCOc3ccc(C(F)(F)F)cc3)cc12)c1ncco1 = 200 to 1000 nM
O=C(Nc1c[nH]c2ccc(OCC[C@@H]3C[C@@H]4CN(CC(F)(F)F)C[C@@H]4C3)cc12)C1C2COCC21 (stereo partly drawn) = 200 to 1000 nM

STING (Homo sapiens, UniProt Q86WV6, G230A/H232R/R293Q/R71H) / EC50 / O=C(Nc1c[nH]c2ccc(O[C@H]3C[C@H](c4ccc(C(F)(F)F)cc4)C3)cc12)C1CC12CCC2 (stereo partly drawn) : value?
40 to 200 nM
